# melting point annotations
Counter-ions that a name gives are not always drawn.

The cases that follow already have their melting point on record.
> print(dat)
                                   molecule  measurement.kind     observed.value
1  CCCCc1nc2c(N)nc3ccccc3c2n1CCCNS(=O)(=O)c1cccc2c(N(C)C)cccc12     melting point  216.5 to 217.5 °C
2   CCCCc1nc2c(N)nc3ccccc3c2n1CCNS(C)(=O)=O     melting point      210 to 211 °C
3  CCCCc1nc2c(N)nc3ccccc3c2n1CCCCNS(=O)(=O)c1ccc([N+](=O)[O-])cc1 (as salt: hydrochloride)     melting point       96 °C (dec.)

Query :: What measured melting point goes with CCCCc1nc2c(N)nc3ccccc3c2n1CCCCNS(=O)(=O)c1cccc(N)c1 (as salt: hydrochloride) ?
Result :: 110.2 °C (dec.)

Query :: // query: `CCCCc1nc2c(N)nc3ccccc3c2n1CCCCCCCCNS(C)(=O)=O`
Result :: 121 to 124 °C

Query :: // query: `CS(=O)(=O)NCCCCn1c(-c2ccccc2)nc2c(N)nc3ccccc3c21`
Result :: 234 to 235 °C

* * *

Test system: tumor necrosis factor (α)
Experiment: Cytokine Induction in Human Cells: tumor necrosis factor (α) secreted by PBMCs, ELISA
Assay type: cell-based
Settings: PBMC, incubated 18 to 24 hours, lowest concentration found to induce tumor necrosis factor
Experimental: An in vitro human blood cell system was used to assess cytokine induction by compounds of the invention. […] Following incubation the plates are centrifuged for 5–10 minutes at 1000 rpm (˜200×g) at 4° C. […] The samples are analyzed for interferon (α) and tumor necrosis factor (α) by ELISA Tumor necrosis factor (α) (TNF) concentration is determined using ELISA kits available from Genzyme, Cambridge, Mass.; R&D Systems, Minneapolis, Minn.; or Pharmingen, San Diego, Calif. […]
# minimal effective concentration annotations
State just the number; it will be interpreted in µM.

> print(dat)
                            smiles.notation              tested.system                 measurement.kind  observed.value
1  CCCCCCc1nc2c(N)nc3ccccc3c2n1CCCCNS(=O)(=O)c1ccccc1  tumor necrosis factor (α)  minimal effective concentration            1.11
2  CCOCc1nc2c(N)nc3c(c2n1CCCNS(C)(=O)=O)CCCC3  tumor necrosis factor (α)  minimal effective concentration            0.37
3  CS(=O)(=O)NCCCCCCCCn1cnc2c(N)nc3ccccc3c21  tumor necrosis factor (α)  minimal effective concentration            1.11
4  Cc1nc2c(N)nc3ccccc3c2n1CCCCNS(=O)(=O)c1ccccc1  tumor necrosis factor (α)  minimal effective concentration            0.04

Query :: What measured minimal effective concentration goes with `COCCc1nc2c(N)nc3ccccc3c2n1CCCCCCCCNS(=O)(=O)c1ccccc1` ?
Result :: 0.01

Query :: // query: `CCCc1nc2c(N)nc3ccccc3c2n1CCCCNS(C)(=O)=O`
Result :: 1.11

* * *

# melting point annotations
Structures can show the parent of a compound that is named as a salt.

The cases that follow already have their melting point on record.
> print(dat)
                                   compound  measurement.kind     observed.value
1  COCCc1nc2c(N)nc3ccccc3c2n1CCCNS(=O)(=O)c1ccc(C)cc1 [Example 253]     melting point      189 to 191 °C
2  CCCCCCc1nc2c(N)nc3ccccc3c2n1CCCCNS(=O)(=O)c1ccccc1 [Example 234]     melting point    84.8 to 85.4 °C
3  Cc1nc2c(N)nc3c(c2n1CCCCNS(C)(=O)=O)CCCC3 (as salt: hydrochloride) [Example 263]     melting point           > 250 °C
4  CCCCc1nc2c(N)nc3ccccc3c2n1CCCCNS(=O)(=O)c1ccc(N)cc1 (as salt: hydrochloride) [Example 10]     melting point    203.1 to 205 °C
5  CS(=O)(=O)NCCCCn1c(CC2CC2)nc2c(N)nc3ccccc3c21 [Example 270]     melting point  199.7 to 200.7 °C

Query :: What measured melting point goes with CCCCc1nc2c(N)nc3ccccc3c2n1CCCCNS(=O)(=O)c1cccs1 [Example 3] ?
Result :: 137.5 to 141.5 °C

Query :: // query: CCCCc1nc2c(N)nc3ccccc3c2n1CCCCNS(=O)(=O)c1ccccc1 [Example 5]
Result :: 75.5 to 79 °C

Query :: // query: CCOCc1nc2c(N)nc3ccccc3c2n1CCCNS(C)(=O)=O [Example 255]
Result :: 208.2 to 209.6 °C
